- measurement_target: Sut1 (UniProt P53032)
- Sequence: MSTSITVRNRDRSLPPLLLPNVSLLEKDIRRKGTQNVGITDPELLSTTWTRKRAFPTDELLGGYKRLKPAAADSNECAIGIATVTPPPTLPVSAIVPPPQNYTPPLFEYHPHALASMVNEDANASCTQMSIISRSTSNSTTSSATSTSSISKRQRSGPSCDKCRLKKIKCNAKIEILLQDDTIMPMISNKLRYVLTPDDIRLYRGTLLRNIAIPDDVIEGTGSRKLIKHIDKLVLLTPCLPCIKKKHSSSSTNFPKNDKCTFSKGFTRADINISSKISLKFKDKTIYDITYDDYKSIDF
- protocol_notes: PBM E-score (8-mer binding enrichment) (E-score (-0.5 to 0.5)); higher = stronger / more preferred TF binding
- measurement_parameters: protein concentration: 200 nM; construct: GST-full length
Over roughly 33,000 sequences, “E-score (-0.5 to 0.5)” has its median near -0.017; the highest 2% begin near 0.3. Many of the other results were omitted from the sample, so the highest values are more common in it than they were.
Record form. Attribute: PBM E-score. Fill in for each entry.
Form rule: numeric answer, no unit written next to it.

Q) Entry ATCCGTCA : reported PBM E-score = ?
A) 0.0376

Q) Could you share which PBM E-score value was measured for ATTTTGCG ?
A) 0.193

Q) Endpoint output: PBM E-score of AATCTGTC . Value?
A) 0.133

Q) Param item = CAATTCCA ; retrieve measured PBM E-score.
A) -0.032

Q) Requested read-out: PBM E-score. Entry: ATCAACTC
A) -0.0768

Q) Reported PBM E-score, sequence CTGCTTGA : ____
A) -0.153

Q) Quick one: PBM E-score of CGGACATA ?
A) 0.433

Q) What value of PBM E-score has been reported for the following sequence? CGGCCGCC
A) -0.05

Q) Return reported PBM E-score; argument: AGAATTGG
A) 0.13

Q) # lookup: PBM E-score of ATGAGCTA
A) 0.0367

Q) What does the data say about its PBM E-score? Entry: AAACTGAA
A) 0.171

Q) PBM E-score for GCTCCGCA ?
A) 0.227

Q) Which PBM E-score is reported for this sequence? ACAACTCT
A) 0.0085

Q) Consider the sequence shown here: AAACCTTA What is its recorded PBM E-score?
A) 0.203

Q) Recorded PBM E-score of CGTCCGTA , please.
A) 0.0823

Q) Suppose we examine the sequence CCGCCGGA ; what PBM E-score value has been reported?
A) 0.223

Q) Entry ACAACTCA : reported PBM E-score = ?
A) 0.13

Q) Which PBM E-score value is on record for AAATTCCA ?
A) 0.241

Q) What value of PBM E-score has been recorded for this entry: CTAAATAG
A) 0.0251

Q) Consider the sequence TCCTTCCA and give its measured PBM E-score.
A) -0.243

Q) PBM E-score for ATTGTCCA ?
A) -0.0211

Q) Any idea what its PBM E-score is? The sequence is GATATTAA
A) 0.285

Q) Would you mind telling me what PBM E-score value was observed for CCTCCGCC ?
A) -0.221

Q) # lookup: PBM E-score of AGTCCGTA
A) 0.445

Q) // PBM E-score lookup, key: GAGTTGTA
A) 0.317

Q) What value of PBM E-score has been recorded for this entry: AGAGCACA
A) -0.0607

Q) Please look up its PBM E-score: CTTTAATC
A) 0.183

Q) So what does the record say about PBM E-score for ACCATAAC ?
A) 0.0292

Q) Look up PBM E-score: CTATAACA
A) 0.0773

Q) If you can, please state the reported PBM E-score value of CTGACATC .
A) 0.0186

Q) Any idea what its PBM E-score is? The sequence is AATGTCCG
A) 0.447

Q) What does the data say about its PBM E-score? Entry: ATGAACTA
A) 0.216

Q) I'd like to know its PBM E-score. The sequence in question is CGGACAAC
A) 0.309

Q) So what's the measured PBM E-score for this one? CTCCGTCA
A) 0.369

Q) Entry GCAACTCC : reported PBM E-score = ?
A) 0.299

Q) Which PBM E-score value is on record for ACTCCCCG ?
A) 0.196

Q) What value of PBM E-score has been reported for the following sequence? ACTTGGTC
A) 0.183

Q) Which PBM E-score reading was recorded for the sequence ATTGTCCC ?
A) -0.108

Q) Endpoint output: PBM E-score of ATTTAATA . Value?
A) 0.265

Q) Report PBM E-score for CGGTCAAG please.
A) -0.09

Q) Field request: PBM E-score | item: CGACTTTA
A) 0.166

Q) Tell me the measured PBM E-score of GCTCCGCC , please.
A) 0.0486

Q) Given the sequence ACTCCGCT , what is its reported PBM E-score?
A) 0.452

Q) Look at this sequence and give its reported PBM E-score. CGGACAAG
A) 0.22

Q) I have this sequence here, AGGACATC , and I need its recorded PBM E-score.
A) 0.0505

Q) Fill blank: measured PBM E-score of the sequence CCAACTCC is ____.
A) 0.387

Q) Could you tell me which PBM E-score is on file for AAGAAGGA ?
A) 0.0609

Q) // returns reported PBM E-score for input CATAAGGA
A) -0.134

Q) Could you share which PBM E-score value was measured for TCTTCTAA ?
A) 0.188

Q) Item under review: GTCACAAC . Reported PBM E-score?
A) -0.0323

Q) Consider the sequence shown here: CATGTCCA What is its recorded PBM E-score?
A) 0.0978

Q) Entry CATTGCTC : reported PBM E-score = ?
A) 0.1

Q) State the recorded PBM E-score for this entry: ACGGTGCC
A) -0.0952

Q) Which measured PBM E-score value corresponds to GTCCGTCA ?
A) 0.253

Q) Entry CAGTTGTA : reported PBM E-score = ?
A) 0.00162

Q) Which PBM E-score value is on record for TGGGTTAA ?
A) -0.0031

Q) Look up PBM E-score for this sequence: CCCCGTCC
A) -0.194

Q) # query: PBM E-score of entry GGACTTTA
A) 0.347

Q) Which PBM E-score is listed for GGTCCGTA ?
A) 0.253

Q) # get_value(readout='PBM E-score', item= ATTTAATC )
A) 0.307

Q) Can you look up the measured PBM E-score of AACCTTGA for me?
A) 0.116

Q) Recorded PBM E-score of ACTCCGCC , please.
A) 0.438

Q) So what's the measured PBM E-score for this one? ACAGCATG
A) -0.124

Q) State the recorded PBM E-score for this entry: GGACTTGA
A) 0.339

Q) Which value of PBM E-score has been reported for AGATTCAT in the records?
A) 0.0265

Q) Reported PBM E-score, sequence GGGACAAC : ____
A) -0.231

Q) Please look up its PBM E-score: TAGAATAA
A) 0.207

Q) // query PBM E-score value for entry AGTCCATG
A) -0.00201

Q) Recorded PBM E-score for CAGTTGGC , please?
A) -0.162

Q) Reported PBM E-score for ATTCCAAT : what is it?
A) 0.161

Q) What value of PBM E-score has been recorded for this entry: ATCCGTCC
A) -0.0115

Q) # get_value(readout='PBM E-score', item= GCGCCGGA )
A) 0.196

Q) Look up PBM E-score: CCTCCCGA
A) -0.289

Q) Quick one: PBM E-score of GTTTAGTA ?
A) 0.208

Q) Item AGAAACCT has what recorded PBM E-score?
A) 0.149

Q) Looking for the measured PBM E-score of GCAACTAC , can you help?
A) 0.0638

Q) May I ask what PBM E-score has been recorded for CGCGCAAC ?
A) -0.114

Q) Look at this sequence and give its reported PBM E-score. CGACCTGA
A) -0.184

Q) Which measured PBM E-score value corresponds to AACAAGCG ?
A) -0.0413

Q) Using the record for AATCAGAT , report its PBM E-score.
A) 0.0945

Q) Any idea what PBM E-score was measured for GGCTGGAC ?
A) -0.278

Q) What PBM E-score value was documented for this sequence, CGGACATC ?
A) 0.406

Q) Which PBM E-score reading was recorded for the sequence GCCTGGCA ?
A) -0.3

Q) What value of PBM E-score has been recorded for this entry: GCAACTCA
A) 0.0595

Q) Would you mind telling me what PBM E-score value was observed for ACTCCGCA ?
A) 0.473

Q) For the sequence shown here, ACTGGATC , give the reported PBM E-score.
A) -0.0162

Q) Query (sequence): AATTTCGG ; field requested: PBM E-score
A) 0.242

Q) Form field: reported PBM E-score of CGGGACTC
A) 0.0911

Q) Can you share its PBM E-score? I mean this sequence: AAATTCCC
A) -0.245

Q) GET /values?readout=PBM E-score&item= GCCTGTCC
A) -0.154

Q) What does the data say about its PBM E-score? Entry: CTTTTGAA
A) 0.152

Reference for the values: the supplement of paper PMC3334620
